- Species: Rattus norvegicus
- experiment summary: Channel opening activity at KATP channel in Wistar rat pancreatic islets assessed as glucose-induced residual insulin secretion at 1 uM after 90 mins by radioimmunology
value type: Activity (%)

compound: CC1(C)CC(NC(=S)Nc2ccc([N+](=O)[O-])cc2)c2cc(F)ccc2O1 (stereo not drawn)
result value: 74.3
--
compound: CC1(C)CC(NC(=S)Nc2cccc([N+](=O)[O-])c2)c2cc(F)ccc2O1 (stereo not drawn)
result value: 76.1
--
compound: CC1(C)CC(NC(=S)Nc2cccc(C#N)c2)c2cc(Cl)ccc2O1 (stereo not drawn)
result value: 66.2
--
compound: CC1(C)CC(NC(=S)Nc2cccc([N+](=O)[O-])c2)c2cc(Cl)ccc2O1 (stereo not drawn)
result value: 64.3
--
compound: CC1(C)CC(NC(=S)Nc2ccc([N+](=O)[O-])cc2)c2cc(Cl)ccc2O1 (stereo not drawn)
result value: 67.3

[1] CC1(C)CC(NC(=S)Nc2ccc(C#N)cc2)c2cc(F)ccc2O1 (stereo not drawn)
[2] CC1(C)Oc2ccc(C#N)cc2C(N2CCCC2=O)C1O (racemic)
// query Form field 'greater Activity' accepts 1 or 2 ; which applies? State your choice using its label.
// result 2

----------
- Species: Rattus norvegicus
- experiment summary: Channel opening activity at KATP channel in Wistar rat pancreatic islets assessed as glucose-induced residual insulin secretion at 10 uM after 90 mins by radioimmunology
value type: Activity (%)

molecule: CC1(C)CC(NC(=S)Nc2ccc(C#N)cc2)c2cc(Br)ccc2O1 (configuration not stated)
display unit: %
result value: 11.7

[a] CC1(C)Oc2ccc(C#N)cc2C(N2CCCC2=O)C1O (racemic)
[b] CC1(C)CC(NC(=S)Nc2ccc([N+](=O)[O-])cc2)c2cc(F)ccc2O1 (configuration not stated)
[c] CS/C(=N\c1cccc(C#N)c1)NC1CC(C)(C)Oc2ccc(Br)cc21 (configuration not stated)
[d] CC1(C)CC(NC(=S)Nc2cccc(C#N)c2)c2cc(F)ccc2O1 (configuration not stated)
// query Sort these molecules on Activity so the largest reading comes first. Would you mind listing the labels in the order asked for?
// result a, c, d, b
(a: 94.4%, c: 37.7%, d: 16.1%, b: 10.7%)

----------
- Species: Rattus norvegicus
- experiment summary: Channel opening activity at KATP channel in Wistar rat pancreatic islets assessed as glucose-induced residual insulin secretion at 1 uM after 90 mins by radioimmunology
value type: Activity (%)

molecule: CC1(C)CC(NC(=S)Nc2ccc([N+](=O)[O-])cc2)c2cc(Br)ccc2O1 (stereo unspecified)
value type: Activity
result value: 61.3

molecule: CC1=Nc2ccc(Cl)cc2S(=O)(=O)N1
value type: Activity
result value: 87.5

molecule: CS/C(=N\c1cccc(C#N)c1)NC1CC(C)(C)Oc2ccc(Br)cc21 (stereo unspecified)
value type: Activity
result value: 93.7

[P] CC1(C)CC(N/C(=N/C#N)Nc2ccc(Cl)cc2)c2cc(Br)ccc2O1 (stereo unspecified)
[Q] CC1(C)CC(NC(=S)Nc2ccc(C#N)cc2)c2cc(Cl)ccc2O1 (stereo unspecified)
// query Select one. Lower Activity: P or Q Give the label of your selection.
// result Q
(Q: 47.8%, P: 95.8%)

----------
- Species: Rattus norvegicus
- experiment summary: Channel opening activity at KATP channel in Wistar rat pancreatic islets assessed as glucose-induced residual insulin secretion at 10 uM after 90 mins by radioimmunology
value type: Activity (%)

A selection of reference data follows.
compound: CC1(C)CC(NC(=S)Nc2cccc(C#N)c2)c2cc(Cl)ccc2O1 (configuration not stated)
Activity (%): 15.8

compound: CC1(C)CC(NC(=S)Nc2cccnc2)c2cc(Br)ccc2O1 (configuration not stated)
Activity (%): 44.3

compound: CC1(C)CC(NC(=S)Nc2cccc([N+](=O)[O-])c2)c2cc(Br)ccc2O1 (configuration not stated)
Activity (%): 13.5

compound: CC1(C)CC(NC(=S)Nc2ccc(C#N)cc2)c2cc(Cl)ccc2O1 (configuration not stated)
Activity (%): 10.6

compound: CC1(C)CC(NC(=S)Nc2cccc([N+](=O)[O-])c2)c2cc(F)ccc2O1 (configuration not stated)
Activity (%): 11.5

[a] CC1(C)CC(NC(=S)Nc2cccc([N+](=O)[O-])c2)c2cc(Cl)ccc2O1 (configuration not stated)
[b] CC1(C)CC(NC(=S)Nc2cccnc2)c2cc(Cl)ccc2O1 (configuration not stated)
// query Which value of Activity is greater, the one for a or the one for b ? Lab log: write the label of the selected item as the result.
// result b
(b: 50.2%, a: 14.4%)
